Collected IC50 values appear next to each entry.
# ASSAY TARGET: EGFR L858R/T790M/C797S (Homo sapiens, UniProt P00533, C797S/L858R/T790M)
# Sequence (P00533 25-1210 T790M/C797S/L858R): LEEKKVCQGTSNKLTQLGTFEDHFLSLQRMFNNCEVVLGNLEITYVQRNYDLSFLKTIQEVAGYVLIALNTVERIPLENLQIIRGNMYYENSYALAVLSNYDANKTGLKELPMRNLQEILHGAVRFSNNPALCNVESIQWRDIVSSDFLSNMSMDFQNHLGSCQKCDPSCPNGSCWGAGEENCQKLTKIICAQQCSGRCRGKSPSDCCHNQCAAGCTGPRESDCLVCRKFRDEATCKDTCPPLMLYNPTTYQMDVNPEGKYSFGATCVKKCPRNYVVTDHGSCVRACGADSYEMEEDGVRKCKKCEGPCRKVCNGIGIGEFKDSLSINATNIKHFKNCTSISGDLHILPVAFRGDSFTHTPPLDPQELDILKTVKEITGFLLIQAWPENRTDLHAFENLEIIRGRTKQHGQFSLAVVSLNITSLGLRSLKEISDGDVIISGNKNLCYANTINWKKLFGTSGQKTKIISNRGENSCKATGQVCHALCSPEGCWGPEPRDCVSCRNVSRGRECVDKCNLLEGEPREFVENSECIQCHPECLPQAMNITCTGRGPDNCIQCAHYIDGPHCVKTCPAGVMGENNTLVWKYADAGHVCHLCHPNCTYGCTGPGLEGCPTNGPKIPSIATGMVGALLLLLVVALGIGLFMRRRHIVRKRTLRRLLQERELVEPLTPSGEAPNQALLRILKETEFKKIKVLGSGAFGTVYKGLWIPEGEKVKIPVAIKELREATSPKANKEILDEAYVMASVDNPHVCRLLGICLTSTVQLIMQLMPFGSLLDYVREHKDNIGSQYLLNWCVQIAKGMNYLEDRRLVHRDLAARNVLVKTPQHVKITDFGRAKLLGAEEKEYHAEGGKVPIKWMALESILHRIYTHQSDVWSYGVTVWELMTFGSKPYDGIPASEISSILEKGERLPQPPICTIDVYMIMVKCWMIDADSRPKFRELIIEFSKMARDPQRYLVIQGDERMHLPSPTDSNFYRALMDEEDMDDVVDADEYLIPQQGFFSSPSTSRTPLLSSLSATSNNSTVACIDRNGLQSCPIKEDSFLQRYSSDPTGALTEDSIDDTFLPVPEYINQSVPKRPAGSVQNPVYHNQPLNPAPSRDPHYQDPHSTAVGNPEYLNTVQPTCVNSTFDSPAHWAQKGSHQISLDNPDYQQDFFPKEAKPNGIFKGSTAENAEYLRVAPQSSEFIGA
# TEST PROTOCOL: Biochemical EGFR kinase inhibition assay (Lance Ultra TR-FRET), triple mutant L858R/T790M/C797S
# SETUP CONDITIONS: IC50 L858R/T790M/C797S (nM), 100 μM ATP

MOLECULE | IC50 (nM)
CN(C)CC1(C)CCN(c2cc(Nc3ccnc(-c4cnn(S(=O)(=O)C5CC5)c4)n3)ncc2C#CC2CCO[C@H]2C(F)(F)F)CC1 (stereo partly shown) [Example 418] | 2.3
Cn1cc(C#Cc2cnc(Nc3ccnc(-c4cnn(S(=O)(=O)C5CC5)c4)n3)cc2N2CCC(CO)C2)cn1 (stereo not shown) [Example 33] | 3.7
O=S(=O)(C1CC1)n1cc(-c2nccc(Nc3cc(N4CCC(CO)CC4)c(C#Cc4cnn(CCF)c4)cn3)n2)cn1 [Example 30] | 1.4
CC1(C#Cc2cnc(Nc3ccnc(-c4cnn(S(=O)(=O)C5CC5)c4)n3)cc2N2CCC(C)(CO)CC2)CCOCC1 [Example 183] | 4.1
O=S(=O)(C1CC1)n1cc(-c2nccc(Nc3cc(N4CCC5(CCCO5)CC4)c(C#Cc4ncc(CN5CCOCC5)cn4)cn3)n2)cn1 [Example 366] | 1.1
O=S(=O)(C1CC1)n1cc(-c2nccc(Nc3cc(NC4CCC(O)CC4)c(C#CC4CCCO4)cn3)n2)cn1 (stereo not shown) [Example 376] | 1.1
Cc1nc(C#Cc2cnc(Nc3ccnc(-c4cnn(S(=O)(=O)C5CC5)c4)n3)cc2N2CCC(O)CC2)cs1 [Example 211] | 6.9
